Tested on: U2OS
measurement_notes: Multiplex assay against U2OS
Assay type: toxicity, cell-based
reported_conditions: human, 24 h, 1 µM, compound concentration 1 uM, replicate 2
# maps each entry to its Population Mitotic Cells (%)
Numbers only; they are read as %.

Use these answered entries as a reference point.
# input Param item = C[C@H](NC(=O)CNC(=O)c1cccc(Cl)c1)c1ccccc1 ; retrieve measured Population Mitotic Cells (%).
# output 11

# input Do the same for O=c1nc2[nH]c3ccccc3nc-2c(=O)[nH]1 please
# output 42

# input Do the same for CCCCC[C@H](O)/C=C/[C@H]1[C@H](O)CC(=O)[C@@H]1CCCCCCC(=O)O please
# output 12

# input Do the same for CN1C[C@H](C(=O)N[C@]2(C)O[C@@]3(O)[C@@H]4CCCN4C(=O)[C@H](Cc4ccccc4)N3C2=O)C[C@@H]2c3cccc4[nH]cc(c34)C[C@H]21.CS(=O)(=O)O [DIHYDROERGOTAMINE MESYLATE] please
# output 0

# input Do the same for CC(C)(O)C(=O)N1CCN(c2ccc(C(F)(F)F)c(C3=C(c4c[nH]c5ccccc45)C(=O)NC3=O)c2)CC1 please
# output 17

***
# input Param item = COc1cc2nc(N3CCN(C(=O)c4ccco4)CC3)nc(N)c2cc1OC.Cl [PRAZOSIN HYDROCHLORIDE] ; retrieve measured Population Mitotic Cells (%).
# output 0

# input Do the same for CC(C)(C)c1ccc(CSc2cnn(C(C)(C)C)c(=O)c2Cl)cc1 please
# output 0

# input Do the same for Cl.Cl.OCCOCCN1CCN(C(c2ccccc2)c2ccc(Cl)cc2)CC1 (configuration not stated) [HYDROXYZINE HYDROCHLORIDE] please
# output 22

# input Do the same for CCC(=O)OCC(=O)[C@@]1(OC(=O)CC)[C@@H](C)C[C@H]2[C@@H]3CCC4=CC(=O)C=C[C@]4(C)[C@@]3(Cl)[C@@H](O)C[C@@]21C [BECLOMETHASONE DIPROPIONATE] please
# output 12

====

Tested on: U2OS
measurement_notes: Multiplex assay against U2OS
Format: toxicity, cell-based
reported_conditions: human, 24 h, 10 µM, compound concentration 10 uM, replicate 2
Non-standard residues stand in square brackets, D forms with d. Residues, ends and D or L forms follow the SMILES beside them.
# maps each entry to its Population Hoechst High Intensity Objects (%)

Use these answered entries as a reference point.
# input Form field: Population Hoechst High Intensity Objects (%) recorded for Cc1cc(O)c(-c2ccc([C@@H](C)CN(C)C)cc2)c2c1[nH]c(=O)c1sccc12 with U2OS (enter value)
# output 12%

# input Do the same for COC(c1ccccc1)(c1ccccc1)[C@H](Oc1nc(C)cc(C)n1)C(=O)O please
# output 0%

# input Do the same for Cc1cc(-c2ccc3c(c2)CC[C@H]3N2CC3(CCN(C(=O)Cc4cn5cc(C)sc5n4)CC3)C2)ncn1 please
# output 1%

# input Do the same for O=C(O)CCC/C=C\CC1C(O)CC(O)C1/C=C/C(O)COc1cccc(Cl)c1 (configuration not stated) please
# output 0%

# input Do the same for CC(C)C[C@@H]1NC(=O)[C@@H](C(C)C)NC(=O)[C@@H]2CCCN2C(=O)[C@@H](CC(=O)O)NC(=O)[C@@H](Cc2c[nH]c3ccccc23)NC1=O [BQ-123] (cyclo(L[dW][dD]P[dV])) please
# output 0%

# input Do the same for COc1cc2nc(N3CCN(C(=O)c4ccco4)CC3)nc(N)c2cc1OC.Cl [PRAZOSIN HYDROCHLORIDE] please
# output 1%

***
# input Form field: Population Hoechst High Intensity Objects (%) recorded for CSc1nc(NC2CCCC2)c([N+](=O)[O-])c(NC2CCCC2)n1 with U2OS (enter value)
# output 3%

====

Tested on: U2OS
measurement_notes: Multiplex assay against U2OS
Type: toxicity, cell-based
reported_conditions: human, 24 h, 1 µM, compound concentration 1 uM, replicate 1
property_label: Population Normal (%)
Numbers only; they are read as %.

# input Param item = COC(c1ccccc1)(c1ccccc1)[C@H](Oc1nc(C)cc(C)n1)C(=O)O ; retrieve measured Population Normal (%).
# output 99

# input Do the same for O=C(Nc1cc(-c2ccccc2)nn1-c1ccccc1F)c1ccc([N+](=O)[O-])cc1 please
# output 96

# input Do the same for Cc1nn(C)c2nc(NNC(=O)Nc3cc(Cl)nc(Cl)c3)cc(C(C)C)c12 please
# output 99

# input Do the same for CC(C)C[C@H](CO)Nc1nc(S[C@@H](C)c2ccccc2)nc2nc(N)sc12 please
# output 98

# input Do the same for Cc1sc2c(c1C)C(c1ccc(Cl)cc1)=N[C@H](CC(=O)OC(C)(C)C)c1nnc(C)n1-2 please
# output 99

***
# input Param item = COc1ccc2[nH]c(I)c(CCNC(C)=O)c2c1 ; retrieve measured Population Normal (%).
# output 98

# input Do the same for CC(C)(O)C(=O)N1CCN(c2ccc(C(F)(F)F)c(C3=C(c4c[nH]c5ccccc45)C(=O)NC3=O)c2)CC1 please
# output 96

# input Do the same for N[C@](CC1c2ccccc2Oc2ccccc21)(C(=O)O)[C@H]1C[C@@H]1C(=O)O please
# output 98

# input Do the same for Nc1nc(CC(=O)Nc2ccc(CCNC[C@H](O)c3ccccc3)cc2)cs1 please
# output 97

# input Do the same for Cc1cc(-c2ccc3c(c2)CC[C@H]3N2CC3(CCN(C(=O)Cc4cn5cc(C)sc5n4)CC3)C2)ncn1 please
# output 98

====

System: HEK-293T
measurement_notes: Multiplex assay against HEK293T
Type: toxicity, cell-based
reported_conditions: human, 48 h, 1 µM, compound concentration 1 uM, replicate 2
property_label: Total Cell Count
Please give only the number in your answer, with no unit.

# input Param item = COc1cc(OC2CCN(C(C)=O)CC2)ccc1C(=O)N1CCC(N2C(=O)OCc3ccccc32)CC1 ; retrieve measured Total Cell Count.
# output 655

# input Do the same for CN1C[C@H](C(=O)N[C@]2(C)O[C@@]3(O)[C@@H]4CCCN4C(=O)[C@H](Cc4ccccc4)N3C2=O)C[C@@H]2c3cccc4[nH]cc(c34)C[C@H]21.CS(=O)(=O)O [DIHYDROERGOTAMINE MESYLATE] please
# output 524

# input Do the same for Cc1cc(O)c(-c2ccc([C@@H](C)CN(C)C)cc2)c2c1[nH]c(=O)c1sccc12 please
# output 212

# input Do the same for Cn1cc(C(=O)OCC2CCN(CCNS(C)(=O)=O)CC2)c2ccccc21 please
# output 490

# input Do the same for O=C(O)CCC/C=C\CC1C(O)CC(O)C1/C=C/C(O)COc1cccc(Cl)c1 (configuration not stated) [CLOPROSTENOL] please
# output 703

# input Do the same for S=C(NCCCc1c[nH]cn1)NCCCN(Cc1ccc(Cl)c(Cl)c1)c1ccc(Br)cn1 please
# output 277

# input Do the same for CCn1c(-c2nc3cc(C(=O)N4CCCC(N)C4)ccc3n2C)cc2ccccc21.Cl (configuration not stated) please
# output 640

# input Do the same for COc1cc2nc(N3CCN(C(=O)COc4c(OC)cccc4C(C)C)CC3)nc(N)c2cc1OC.Cl.Cl please
# output 737

# input Do the same for COc1cc(C(=O)N2CC[C@@H](O)[C@@H](N)C2)cc2nc(-c3cc4ccccc4n3CC3CC3)n(C)c12.Cl please
# output 520

# input Do the same for COc1c(Nc2ccc(S(C)(=O)=O)nc2C)ncnc1OC1CCN(C(=O)OC(C)C)CC1 [ADP-597] please
# output 590

====

# maps each entry to its Population Mitotic Cells (%)
Tested on: U2OS
measurement_notes: Multiplex assay against U2OS
Format: toxicity, cell-based
reported_conditions: human, 48 h, 1 µM, compound concentration 1 uM, replicate 2
Numbers only; they are read as %.

# input Param item = O=C(NCCNCC(O)COc1ccc(O)cc1)N1CCOCC1.O=C(NCCNCC(O)COc1ccc(O)cc1)N1CCOCC1.O=C(O)/C=C/C(=O)O (centres undefined) [XAMOTEROL FUMARATE] ; retrieve measured Population Mitotic Cells (%).
# output 8

# input Do the same for CC(C)C[C@H](CO)Nc1nc(S[C@@H](C)c2ccccc2)nc2nc(N)sc12 [AZD-8797] please
# output 0

# input Do the same for Nc1nc(CC(=O)Nc2ccc(CCNC[C@H](O)c3ccccc3)cc2)cs1 [MIRABEGRON] please
# output 21

Moving on to another compound below.
# input Param item = Cn1cc(C(=O)OCC2CCN(CCNS(C)(=O)=O)CC2)c2ccccc21 ; retrieve measured Population Mitotic Cells (%).
# output 42

====

# maps each entry to its Population Tubulin-Different-Phenotype (%)
Tested on: Fibroblast
measurement_notes: Multiplex assay against human fibroblast
Type: toxicity, cell-based
reported_conditions: 48 h, 10 µM, compound concentration 10 uM, replicate 2
Numbers only; they are read as %.

Use these answered entries as a reference point.
# input Param item = Cc1nn(C)c2nc(NNC(=O)Nc3cc(Cl)nc(Cl)c3)cc(C(C)C)c12 ; retrieve measured Population Tubulin-Different-Phenotype (%).
# output 85

# input Do the same for CCCCCCNC(=O)Nc1ccc(S(=O)(=O)Nc2ccc(CCNC[C@H](O)COc3ccc(O)cc3)cc2)cc1 please
# output 55

# input Do the same for CC(F)(F)CN1CCOc2c(nn(-c3ccccc3Cl)c2-c2ccc(Cl)cc2)C1=O please
# output 57

# input Do the same for Cn1cc(C(=O)OCC2CCN(CCNS(C)(=O)=O)CC2)c2ccccc21 please
# output 60

Moving on to another compound below.
# input Param item = CN1CCN(c2ccc(Nc3c4ccccc4nc4ccccc34)cc2)CC1.Cl.Cl.O ; retrieve measured Population Tubulin-Different-Phenotype (%).
# output 56

These measurements were taken from ChEMBL document CHEMBL5058577.
